- system under test: T1, human PCSK9 (proprotein convertase subtilisin kexin type 9) (human, UniProt Q8NBP7 31-692)
- T1 construct: immobilized directly (ProteOn), biotinylated (Octet) or in solution, according to the assay; also called hPCSK9; PCSK9-AF647 (labelled form)
- T1 sequence (Q8NBP7 31-692 limits assumed): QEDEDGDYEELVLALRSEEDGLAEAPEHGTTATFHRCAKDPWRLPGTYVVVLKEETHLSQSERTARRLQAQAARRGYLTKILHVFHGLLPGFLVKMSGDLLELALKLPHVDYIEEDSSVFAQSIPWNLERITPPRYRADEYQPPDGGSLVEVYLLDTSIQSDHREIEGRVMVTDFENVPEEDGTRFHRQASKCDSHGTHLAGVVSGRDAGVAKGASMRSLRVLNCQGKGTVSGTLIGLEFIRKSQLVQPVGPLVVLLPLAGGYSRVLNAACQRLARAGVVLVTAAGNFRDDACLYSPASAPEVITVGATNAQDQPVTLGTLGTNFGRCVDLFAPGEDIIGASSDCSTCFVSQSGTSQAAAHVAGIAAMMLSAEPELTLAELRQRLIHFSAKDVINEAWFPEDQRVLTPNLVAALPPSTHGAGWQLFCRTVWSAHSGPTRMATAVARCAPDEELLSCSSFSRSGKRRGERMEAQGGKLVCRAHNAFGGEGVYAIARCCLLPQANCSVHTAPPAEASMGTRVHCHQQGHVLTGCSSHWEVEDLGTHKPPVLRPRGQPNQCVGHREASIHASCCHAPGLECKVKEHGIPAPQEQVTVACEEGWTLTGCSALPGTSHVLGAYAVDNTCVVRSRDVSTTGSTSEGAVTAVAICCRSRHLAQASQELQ
- assay overview: BLI (Octet Red), 37 C
observed property: Kd (nM)

The following binders have reported results that may help.
2013E01 (designed binder, unmodified (not PEGylated) Adnectin; also called ATI001081) MGVSDVPRDLEVVAATPTSLLISWVPPSDDYGYYRITYGETGGNSPVQEFTVPIGKGTATISGLKPGVDYTITVYAVEFPWPHAGYYHRPISINYRTEIDKPSQHHHHHH    1.51
2382H09 (designed binder) MGVSDVPRDLEVVAATPTSLLISWDAPAAAYGYYRITYGETGGNSPVQEFTVPSSKGTATISGLKPGVDYTITVYAVEFDFPGSGYYHRPISINYRTEIDKPSQHHHHHH    1.86

[a] 2382B09 (designed binder) MGVSDVPRDLEVVAATPTSLLISWDAPADAYGYYRITYGETGGNSPVQEFTVPVSKGTATISGLKPGVDYTITVYAVEFDYPGSGYYHRPISINYRTEIDKPSQHHHHHH
[b] 2971A09 (designed binder) MGVSDVPRDLEVVAATPTSLLISWDAPADDYGYYRITYGETGGNSPVQEFTVPIGKGTATISGLKPGVDYTITVYAVEFPWPHAGYYHRPISINYRTEIDKPSQHHHHHH
For the pair a and b , which entry has the numerically smaller recorded Kd? Respond with the label that goes with your answer.
a
